Taken from ChEMBL document CHEMBL1141868.

molecular target: Enoyl-acyl-carrier protein reductase (Plasmodium falciparum, UniProt Q965D5); assay: Inhibition of PfENR enzymatic activity
Catalogue of molecules with associated pIC50
Please express pIC50 as -log10 of the molar concentration.

Consider the following illustrative entries.
| MOL | REPORTED RESULT |
| --- | --- |
| CC(=O)Nc1ccc(Oc2ccc(Cl)cc2O)c(Cl)c1 | 7.24 |
| O=C(Nc1ccc(Oc2ccc(Cl)cc2O)c(Cl)c1)N1CCOCC1 | 6.60 |
| O=S(=O)(Nc1ccc(Oc2ccc(Cl)cc2O)c(Cl)c1)c1cccc2ccccc12 | 6.23 |
| Oc1ccc(Oc2ccc(Cl)cc2O)c(Cl)c1 | 6.66 |
| O=S(=O)(Nc1ccc(Oc2ccc(Cl)cc2O)c(Cl)c1)c1ccc2ccccc2c1 | 5.60 |

The record that follows has no pIC50 shown yet.
Prompt line: // query pIC50 value for entry O=C(c1ccc(Oc2ccc(Cl)cc2O)c(Cl)c1)N1CCCCC1
Response line: 6.17

---

Biological target: Enoyl-acyl-carrier protein reductase (Plasmodium falciparum, UniProt Q965D5)
Sequence (Q965D5 whole entry): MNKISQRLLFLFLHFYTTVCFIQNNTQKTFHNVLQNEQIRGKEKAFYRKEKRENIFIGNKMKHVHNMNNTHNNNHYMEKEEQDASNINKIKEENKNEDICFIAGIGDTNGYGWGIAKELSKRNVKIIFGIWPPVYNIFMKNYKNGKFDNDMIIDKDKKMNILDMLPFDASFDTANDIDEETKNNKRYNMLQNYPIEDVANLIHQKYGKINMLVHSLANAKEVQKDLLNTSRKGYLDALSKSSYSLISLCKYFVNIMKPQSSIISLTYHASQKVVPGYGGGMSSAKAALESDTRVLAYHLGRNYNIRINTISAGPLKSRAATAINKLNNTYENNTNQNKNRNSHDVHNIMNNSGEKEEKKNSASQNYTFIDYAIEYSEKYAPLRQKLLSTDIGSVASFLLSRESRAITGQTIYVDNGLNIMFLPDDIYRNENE
# if measured IC50 < 400 nM: MET  # else: NOT MET

| COMPOUND | SUBJECT OF TEST | LABEL VALUE |
| --- | --- | --- |
| O=C(Nc1ccc(Oc2ccc(Cl)cc2O)c(Cl)c1)c1ccccc1 | Enoyl-acyl-carrier protein reductase (Plasmodium falciparum, UniProt Q965D5) | MET |
| O=C(NO)c1ccc(Oc2ccc(Cl)cc2O)c(Cl)c1 | Enoyl-acyl-carrier protein reductase (Plasmodium falciparum, UniProt Q965D5) | NOT MET |
| O=C(c1ccc(Oc2ccc(Cl)cc2O)c(Cl)c1)N1CCCC1 | Enoyl-acyl-carrier protein reductase (Plasmodium falciparum, UniProt Q965D5) | NOT MET |
| O=C(O)c1ccc(Oc2ccc(Cl)cc2O)c(Cl)c1 | Enoyl-acyl-carrier protein reductase (Plasmodium falciparum, UniProt Q965D5) | NOT MET |

Prompt line: Bench note: check whether N#CCc1ccc(Oc2ccc(Cl)cc2O)c(Cl)c1 shows IC50 below 400 nM
Response line: MET

Prompt line: Lab note: IC50 threshold 400 nM. Does this compound come in strictly under it? Oc1ccccc1CNc1ccc(Oc2ccc(Cl)cc2O)c(Cl)c1
Response line: MET

Prompt line: Consider the compound CN(C)C(=O)c1ccc(Oc2ccc(Cl)cc2O)c(Cl)c1 . Is its IC50 strictly less than 400 nM?
Response line: NOT MET

Prompt line: Lab log: compare recorded IC50 with 400 nM; is it strictly lower for N#Cc1ccccc1CNc1ccc(Oc2ccc(Cl)cc2O)c(Cl)c1 ?
Response line: NOT MET

Prompt line: IC50 strictly < 400 nM for this compound? Oc1cc(Cl)ccc1Oc1ccc(Cl)cc1Cl [TRICLOSAN]
Response line: MET

---

Here the recorded pIC50 is given for each entry.
Biological target: Enoyl-acyl-carrier protein reductase (Plasmodium falciparum)
Sequence (Q965D5 whole entry): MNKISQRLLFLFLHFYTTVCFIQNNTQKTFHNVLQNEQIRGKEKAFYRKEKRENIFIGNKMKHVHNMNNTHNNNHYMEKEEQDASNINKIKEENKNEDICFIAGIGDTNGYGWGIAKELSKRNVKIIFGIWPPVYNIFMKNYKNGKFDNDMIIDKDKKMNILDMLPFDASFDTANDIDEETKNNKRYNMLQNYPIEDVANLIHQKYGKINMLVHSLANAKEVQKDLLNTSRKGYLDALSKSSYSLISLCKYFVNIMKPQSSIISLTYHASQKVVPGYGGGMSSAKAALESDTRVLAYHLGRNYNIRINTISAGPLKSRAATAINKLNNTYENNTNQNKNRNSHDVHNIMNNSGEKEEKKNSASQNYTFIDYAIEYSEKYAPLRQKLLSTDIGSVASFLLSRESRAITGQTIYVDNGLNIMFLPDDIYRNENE
Field pIC50 (float): negative decimal logarithm of the concentration in molar.

As a guide, the following entries are already answered.
| MOL | pIC50 |
| --- | --- |
| O=C(NCc1ccccc1)c1ccc(Oc2ccc(Cl)cc2O)c(Cl)c1 | 5.52 |
| N#Cc1ccc(Oc2ccc(Cl)cc2O)c(Cl)c1 | 6.92 |
| Oc1cc(Cl)ccc1Oc1ccc(NCc2ccccc2)cc1Cl | 6.85 |
| O=S(=O)(Nc1ccc(Oc2ccc(Cl)cc2O)c(Cl)c1)c1ccccc1 | 6.43 |
| Oc1cc(Cl)ccc1Oc1ccc(-c2nn[nH]n2)cc1Cl | 6.38 |

Prompt line: What value of pIC50 has been recorded for this entry: O=[N+]([O-])c1ccc(Oc2ccc(Cl)cc2O)c(Cl)c1
Response line: 6.74

Prompt line: Entry NC(=O)Nc1ccc(Oc2ccc(Cl)cc2O)c(Cl)c1 : reported pIC50 = ?
Response line: 6.80

Prompt line: Which pIC50 is listed for Nc1ccc(Oc2ccc(Cl)cc2O)c(Cl)c1 ?
Response line: 6.44

Prompt line: Request the reported pIC50 associated with NC(=O)c1ccc(Oc2ccc(Cl)cc2O)c(Cl)c1
Response line: 6.92

Prompt line: What measured pIC50 goes with O=C(c1ccc(Oc2ccc(Cl)cc2O)c(Cl)c1)N1CCOCC1 ?
Response line: 6.70

Prompt line: Given the entry O=S(=O)(Nc1ccc(Oc2ccc(Cl)cc2O)c(Cl)c1)C(F)(F)F , report its measured pIC50.
Response line: 6.85

Prompt line: Find the recorded pIC50 belonging to CNC(=O)c1ccc(Oc2ccc(Cl)cc2O)c(Cl)c1 and report it.
Response line: 6.51
